Entry source: patent US20210388087A1

Target: T1, Human CD3eg linker (human)
T1 construct: Single-chain construct; also called recombinant human CD3
T1 chain: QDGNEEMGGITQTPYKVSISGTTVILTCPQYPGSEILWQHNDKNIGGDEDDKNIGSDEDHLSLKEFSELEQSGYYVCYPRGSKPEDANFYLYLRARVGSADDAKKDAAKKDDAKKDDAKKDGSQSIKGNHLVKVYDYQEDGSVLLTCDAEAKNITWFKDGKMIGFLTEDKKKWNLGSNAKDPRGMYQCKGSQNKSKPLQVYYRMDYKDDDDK
Assay: SPR; fold vs parent H183/L072
Measured Endpoint: fold change of affinity
Put your answer as a value accompanied by its unit after it.

For this binder ( H183/L072 VL G91T (antibody, name in Kabat numbering, V domains shown) VH: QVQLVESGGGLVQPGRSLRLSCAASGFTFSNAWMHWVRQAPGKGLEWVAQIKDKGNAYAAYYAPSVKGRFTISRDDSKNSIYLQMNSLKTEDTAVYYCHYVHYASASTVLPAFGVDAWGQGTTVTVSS VL: DIVMTQSPLSLPVTPGEPASISCQASQELVHMNRNTYLHWYQQKPGQAPRLLIYKVSNRFPGVPDRFSGSGSGTDFTLKISRVEAEDVGVYYCAQTTSVPFTFGQGTKLEIK ), measured fold change of affinity is 0 fold

For this binder ( H183/L072 VL Q27N (antibody, name in Kabat numbering, V domains shown) VH: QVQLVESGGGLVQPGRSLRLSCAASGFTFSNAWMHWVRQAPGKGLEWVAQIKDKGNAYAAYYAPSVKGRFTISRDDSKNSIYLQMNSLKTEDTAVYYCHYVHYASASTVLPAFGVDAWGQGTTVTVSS VL: DIVMTQSPLSLPVTPGEPASISCQASNELVHMNRNTYLHWYQQKPGQAPRLLIYKVSNRFPGVPDRFSGSGSGTDFTLKISRVEAEDVGVYYCAQGTSVPFTFGQGTKLEIK ), measured fold change of affinity is 1 fold

For this binder ( H183/L072 VL P95D (antibody, name in Kabat numbering, V domains shown) VH: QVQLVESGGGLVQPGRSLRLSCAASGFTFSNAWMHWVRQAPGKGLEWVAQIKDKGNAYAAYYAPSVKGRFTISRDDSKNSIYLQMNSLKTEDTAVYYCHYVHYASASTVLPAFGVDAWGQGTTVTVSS VL: DIVMTQSPLSLPVTPGEPASISCQASQELVHMNRNTYLHWYQQKPGQAPRLLIYKVSNRFPGVPDRFSGSGSGTDFTLKISRVEAEDVGVYYCAQGTSVDFTFGQGTKLEIK ), measured fold change of affinity is 0 fold
